- Test Description: Caco-2 intestinal permeability
- Format: in vitro ADME, human
- Experimental Context: human, Caco-2, pH 7.4; without inhibitor; read-out: Efflux Ratio (Papp BA/Papp AB)
Parameter: efflux ratio at 60 min, 10 μM
Respond using a number only.

What value of efflux ratio at 60 min, 10 μM has been recorded for this entry: COc1cc(C(=O)c2cc(C)cc(C)c2)cc([N+](=O)[O-])c1O
1

What value of efflux ratio at 60 min, 10 μM has been recorded for this entry: COc1cc(C(=O)c2ccc(C)cc2C)cc([N+](=O)[O-])c1O
1

What value of efflux ratio at 60 min, 10 μM has been recorded for this entry: COc1cc(C(=O)c2ccc(C)cc2)cc([N+](=O)[O-])c1O
1.5
